- tested on: Human plasma kallikrein (Homo sapiens (Human))
- assay overview: In vitro plasma kallikrein inhibition assay (chromogenic substrate D-Pro-Phe-Arg-pNa, absorbance at 405 nm, IC50 determination)
- Assay type: biochemical
value kind: KLKB1 pIC50
Reply: number alone, nothing else.

| compound | tested on | value kind | value |
| --- | --- | --- | --- |
| CON=C(N)c1ccc(CNC(=O)c2ccc3c(c2)[C@@H]2O[C@H]3c3ccc(C4CC4)cc32)cc1 | Human plasma kallikrein (Homo sapiens (Human)) | KLKB1 pIC50 | 5.61 |
| CON=C(N)c1cc(F)c(CNC(=O)c2ccc3c(c2)[C@@H]2O[C@H]3c3ccc(-c4nccs4)cc32)c(F)c1 | Human plasma kallikrein (Homo sapiens (Human)) | KLKB1 pIC50 | 5.86 |
| Cc1cc(N)nc(C)c1CNC(=O)c1ccc2c(c1)C1OC2(C)c2ccc(-c3ccc(F)cc3)cc21 (racemic) | Human plasma kallikrein (Homo sapiens (Human)) | KLKB1 pIC50 | 5.6 |

Pending compound:
Determine reported KLKB1 pIC50 for "NC(=NO)c1cc(F)c(CNC(=O)c2ccc3c(c2)[C@@H]2O[C@H]3c3ccc(-c4ccc(F)cc4F)cc32)c(F)c1" ; test system: Human plasma kallikrein (Homo sapiens (Human)).
6.99

###

- tested on: Human plasma kallikrein (Homo sapiens (Human), UniProt P03952)
- Sequence (P03952 391-638): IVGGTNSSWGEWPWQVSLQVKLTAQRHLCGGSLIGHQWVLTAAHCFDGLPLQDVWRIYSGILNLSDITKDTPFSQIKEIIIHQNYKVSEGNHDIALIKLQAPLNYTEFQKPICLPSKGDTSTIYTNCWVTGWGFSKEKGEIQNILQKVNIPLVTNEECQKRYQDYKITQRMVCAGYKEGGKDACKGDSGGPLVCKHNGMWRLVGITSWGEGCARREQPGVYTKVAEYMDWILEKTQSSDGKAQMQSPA
- Sequence (P03952 20-390 partner): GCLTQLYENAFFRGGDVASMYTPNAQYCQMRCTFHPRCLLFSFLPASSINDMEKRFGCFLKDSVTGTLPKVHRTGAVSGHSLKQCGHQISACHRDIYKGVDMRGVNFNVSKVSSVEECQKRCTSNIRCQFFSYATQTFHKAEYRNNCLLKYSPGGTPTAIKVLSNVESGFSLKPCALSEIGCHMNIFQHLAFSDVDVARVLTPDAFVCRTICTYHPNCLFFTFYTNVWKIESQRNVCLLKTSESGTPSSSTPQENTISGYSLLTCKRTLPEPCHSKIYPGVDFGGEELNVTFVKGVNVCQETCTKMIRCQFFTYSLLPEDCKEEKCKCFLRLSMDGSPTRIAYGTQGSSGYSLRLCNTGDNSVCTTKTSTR
- assay overview: In vitro plasma kallikrein inhibition assay (chromogenic substrate D-Pro-Phe-Arg-pNa, absorbance at 405 nm, IC50 determination)
- Format: biochemical
- assay context: read-out: KLKB1 pIC50 (converted)
The threshold is 80 nM. Values of IC50 beneath it are tagged 1.0; values meeting or exceeding it are tagged 0.0.

| compound | classification |
| --- | --- |
| Cc1cc(CNC(=O)c2ccc3c(c2)C2OC3c3ccc(-c4ccc(F)cc4F)cc32)c(C)nc1N (racemic) | 0.0 |
| CC(C)c1ccc2c(c1)[C@H]1O[C@@H]2c2ccc(C(=O)NCc3ccc(C(=N)N)cc3)cc21 (single isomer, unassigned) | 1.0 |

Dear colleague, could you confirm whether IC50 of N=C(N)c1ccc(CNC(=O)c2ccc3c(c2)[C@@H]2O[C@H]3c3ccc(-c4ccccc4F)cc32)c(F)c1 (single isomer, unassigned) falls below 80 nM? Thanks.
1.0

Dear colleague, could you confirm whether IC50 of N=C(N)c1ccc(CNC(=O)c2ccc3c(c2)[C@@H]2O[C@H]3c3ccc(-c4ccc(F)cc4)cc32)cc1 (single isomer, unassigned) falls below 80 nM? Thanks.
1.0

Dear colleague, could you confirm whether IC50 of CCc1cc(N)nc(C)c1CNC(=O)c1ccc2c(c1)C1OC2c2ccc(-c3ccc(F)cc3F)cc21 (racemic) falls below 80 nM? Thanks.
1.0

Dear colleague, could you confirm whether IC50 of CCOC(=O)N=C(N)c1ccc(CNC(=O)c2ccc3c(c2)[C@@H]2O[C@H]3c3ccc(-c4ccc(F)cc4F)cc32)cc1 (single isomer, unassigned) falls below 80 nM? Thanks.
0.0

###

- tested on: Human plasma kallikrein (Homo sapiens (Human), UniProt P03952)
- assay overview: In vitro plasma kallikrein inhibition assay (chromogenic substrate D-Pro-Phe-Arg-pNa, absorbance at 405 nm, IC50 determination)
- Format: biochemical
- assay context: read-out: KLKB1 pIC50 (converted)
Quick list: IC50 per entry.
Enter your answer as a number in µM; do not include the unit.

| compound | IC50 / µM |
| --- | --- |
| N=C(N)c1cc(F)c(CNC(=O)c2ccc3c(c2)[C@@H]2O[C@H]3c3ccc(N4CCS(=O)(=O)CC4)cc32)c(F)c1 (single isomer, unassigned) | 0.00501 |
| COc1ccc(-n2cnnn2)c(CNC(=O)c2ccc3c(c2)C2OC3c3ccc(-c4ccc(F)cc4F)cc32)c1 (racemic) | 0.977 |
| Cc1cc(N)nc(C)c1CNC(=O)c1ccc2c(c1)[C@@H]1O[C@H]2c2ccc(Cn3cc(Cl)cn3)cc21 (single isomer, unassigned) | 0.001 |

Pending compound:
# return recorded IC50 for entry O=C(N[C@@H]1CCNC1)c1ccc2c(c1)[C@@H]1O[C@H]2c2ccc(-c3ccc(F)cc3F)cc21 (single isomer, unassigned)
100
